Tested on: Wolbachia pipientis
Measurement Protocol: Anti-Wolbachia Cell-Based Screen
Format: functional
Design: scale not given: in the data most compounds retested in dose-response had high values
Details: 5 µM
Among all 48,000 compounds or so, about 13,000 (27%) showed an effect of 50% or more. This is one part of the list.
Quantity Kind: Percent Effect (%)
Answer format: numeric, % implied, no suffix.

# Item Smiles, Observed
records = [
    ("Cc1ccc(CN2CCO[C@H]3[C@@H](OCc4cccnc4)CC[C@@H]32)o1.O=C(O)C(F)(F)F.O=C(O)C(F)(F)F", 111.1),
    ("O=C(O)C(F)(F)F.O=C(O)C(F)(F)F.c1cnc(N2CCO[C@H]3CN(CC4CCOCC4)C[C@H]32)nc1", 110.6),
    ("CNC(=O)CN1CCO[C@H]2CN(CC3CC3)C[C@H]21.O=C(O)C(F)(F)F.O=C(O)C(F)(F)F", 7.624),
    ("O=C(O)C(F)(F)F.c1cnc(N2CCO[C@H]3CN(Cc4csnn4)C[C@H]32)nc1", -24.49),
]

IN: Give recorded Percent Effect. Fc1cnc(N2CCO[C@H]3CN(CC4CCCC4)C[C@H]32)nc1.O=C(O)C(F)(F)F
OUT: -2.844

IN: Give recorded Percent Effect. Cc1ccc(CN2CCO[C@@H]3[C@@H](OCc4cccnc4)CC[C@@H]32)o1
OUT: 103.6

IN: Give recorded Percent Effect. Fc1ccccc1CN1C[C@@H]2OCCN(c3ncccn3)[C@@H]2C1
OUT: 1.64

IN: Give recorded Percent Effect. c1ccc(O[C@H]2CC[C@H]3[C@H]2OCCN3Cc2nccs2)nc1
OUT: -6.34
